System: Es-2
Assay: Primary qHTS to identify gynecologic anti-cancer compounds using libraries of approved drugs and bioactive compounds (AID 1345084); also: nearly all actives have a fitted effect of over 55% in size
Details: Gynecologic cancer cell panel viability, ATPlite luminescence, 48 h; series mostly up to 57.5 µM
Records with an inconclusive call do not appear. Active and inactive are the calls of the source. Calls follow the shape of the dose curve; as a rule, active = well fitted cell-killing curve with a large enough effect; inconclusive = small, poorly fitted or top-dose-only effect, or effect the other way; inactive = flat fitted curve, though single readings scatter.
Outcomes you can answer with include only these: Y (active), N (inactive)

compound	target.under.test	label
Cc1nn(-c2ccccc2)c(C)c1/C=N/N1CCN(Cc2ccccc2)CC1	Es-2	N

Field: outcome | Entry: CN(C)CCN(Cc1ccsc1)c1ccccn1
N

Field: outcome | Entry: CCOc1c(N2CCOCC2)cnn(C)c1=O
N

Field: outcome | Entry: Clc1ccc2c(c1)N=C(N1CCNCC1)c1ccccc1N2
N

Field: outcome | Entry: Nc1cc(C(F)(F)F)ccc1S
N

Field: outcome | Entry: O=C(O)CCCC[C@@H]1SC[C@@H]2NC(=O)N[C@@H]21
N
